Collected pIC50 values appear next to each entry.
system: RL; assay: cells; format: functional, cell-based; conditions: Homo sapiens;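 also: cell viability readout used to gauge growth inhibition of the human RL cell line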
Description: SANGER: Inhibition of human RL cell growth in a cell viability assay.
pIC50: −log10 of the molar value.

# count of solved cases: 3
| compound | pIC50 |
| --- | --- |
| Fc1cc(-c2cc[nH]/c(=N/c3ccc(-n4cnc(N5CCOCC5)n4)cc3)n2)cc(N2CCOCC2)c1 | 5.80 |
| CCNc1cc(N[C@H]2CC[C@@H](O)CC2)nc(Nc2ccc3c(ccn3Cc3ccccc3)c2)n1 | < 5.29 |
| Cc1nc(Nc2ncc(C(=O)Nc3c(C)cccc3Cl)s2)cc(N2CCN(CCO)CC2)n1 [DASATINIB] | < 5.89 |

Could you now consider this next compound?
**Query** // query pIC50 value for entry O=c1[nH]c2ccccc2n1C1CCN(Cc2ccc(-c3nc4cc5[nH]cnc5cc4nc3-c3ccccc3)cc2)CC1
**Result** < 5.59

Values compiled from ChEMBL document CHEMBL1201861.
